Assay: Exact solubility of Compound 1 Form A in selected solvent systems (1 day suspension, HPLC)
Format: physicochemical
Conditions: DMSO/0.01 M aqueous NaOH 1:2 v/v, aqueous with cosolvent or surfactant or cyclodextrin, thermodynamic from solid, DMSO/NaOH aq 0.01M 1:2 v/v, 60° C.
Recorded endpoint: solubility at 1 day (mg/mL)
Write it as a number; the unit mg/mL goes unstated.

Given item Cc1nc(N)c2c(C(N)=O)cn([C@@H]3O[C@H](CO)[C@@H](O)[C@H]3O)c2n1 , the value recorded as its solubility at 1 day is 19.6

---

Experiment: Exact solubility of Compound 1 Form A in selected solvent systems (1 day suspension, HPLC)
Type: physicochemical
Details: aqueous with cosolvent or surfactant or cyclodextrin, thermodynamic from solid, 1-Propanol/NaOH aq 0.01M 1:3 v/v, 24° C.
Recorded endpoint: solubility at 1 day (µg/mL)
Give just the numeric value; µg/mL need not be written.

Short answer for Cc1nc(N)c2c(C(N)=O)cn([C@@H]3O[C@H](CO)[C@@H](O)[C@H]3O)c2n1 : solubility at 1 day was 6800

---

Assay: Approximate solubility of Compound 1 in various solvents (stepwise solvent addition)
Format: physicochemical
Details: aqueous with cosolvent or surfactant or cyclodextrin, thermodynamic from solid; THF/water 1:1 v/v; RT; read-out: Solubility [S, mg/mL]
Recorded endpoint: solubility

solubility measured on Cc1nc(N)c2c(C(N)=O)cn([C@@H]3O[C@H](CO)[C@@H](O)[C@H]3O)c2n1 [Compound 1] = ~22 mg/mL

---

Experiment: Approximate solubility of Compound 1 in various solvents (stepwise solvent addition)
Format: physicochemical
Settings: aqueous buffer, thermodynamic from solid; NaOH aq 1M; RT; read-out: Solubility [S, mg/mL]
Recorded endpoint: solubility

Measured solubility, Cc1nc(N)c2c(C(N)=O)cn([C@@H]3O[C@H](CO)[C@@H](O)[C@H]3O)c2n1 : ~60 mg/mL

---

Test: Exact solubility of Compound 1 Form A in selected solvent systems (1 day suspension, HPLC)
Type: physicochemical
Conditions: aqueous with cosolvent or surfactant or cyclodextrin, thermodynamic from solid, 2-Propanol/water 1:2 v/v, 60° C.
Procedure: The exact solubilities of Compound 1 Form A in selected solvent systems were determined at 24° C. and 60° C. […] The concentration of Compound 1 was then determined by HPLC. The exact solubilities of Form A in selected solvent systems were determined at 24° C. and 60° C. […] The concentration of Compound 1 was then determined by HPLC.
Recorded endpoint: solubility at 1 day (mg/mL)
The response must be a number in mg/mL with no trailing unit.

Consider Cc1nc(N)c2c(C(N)=O)cn([C@@H]3O[C@H](CO)[C@@H](O)[C@H]3O)c2n1 . Its measured solubility at 1 day is 26.6

---

Assay: Approximate solubility of Compound 1 in various solvents (stepwise solvent addition)
Type: physicochemical
Conditions: aqueous with cosolvent or surfactant or cyclodextrin, thermodynamic from solid; THF/water 1:4 v/v; RT; read-out: Solubility [S, mg/mL]
Recorded endpoint: solubility

Recorded result, Cc1nc(N)c2c(C(N)=O)cn([C@@H]3O[C@H](CO)[C@@H](O)[C@H]3O)c2n1 , solubility: ~6 mg/mL

---

Experiment: Approximate solubility of Compound 1 in various solvents (stepwise solvent addition)
Assay type: physicochemical
Conditions: aqueous with cosolvent or surfactant or cyclodextrin, thermodynamic from solid; DMSO/water 1:1 v/v; RT; read-out: Solubility [S, mg/mL]
Recorded endpoint: solubility

Reported solubility ( Cc1nc(N)c2c(C(N)=O)cn([C@@H]3O[C@H](CO)[C@@H](O)[C@H]3O)c2n1 [Compound 1] ) = ~8 mg/mL

---

Assay: Exact solubility of Compound 1 Form A in selected solvent systems (1 day suspension, HPLC)
Assay type: physicochemical
Details: aqueous with cosolvent or surfactant or cyclodextrin, thermodynamic from solid, 1-Propanol/water 1:2 v/v, 60° C.
Recorded endpoint: solubility at 1 day (mg/mL)
Numbers only here, please. The scale is mg/mL.

Recorded solubility at 1 day (compound Cc1nc(N)c2c(C(N)=O)cn([C@@H]3O[C@H](CO)[C@@H](O)[C@H]3O)c2n1 ): 30.9

---

Test: Approximate solubility of Compound 1 in various solvents (stepwise solvent addition)
Type: physicochemical
Conditions: organic solvent or mixture, thermodynamic from solid; Ethanol; RT; read-out: Solubility [S, mg/mL]
Recorded endpoint: solubility (mg/mL)
Numeric answer only, unit mg/mL assumed.

Looking up Cc1nc(N)c2c(C(N)=O)cn([C@@H]3O[C@H](CO)[C@@H](O)[C@H]3O)c2n1 [Compound 1] , I found its solubility recorded as 1.7

---

Experiment: Exact solubility of Compound 1 Form A in selected solvent systems (1 day suspension, HPLC)
Type: physicochemical
Settings: aqueous with cosolvent or surfactant or cyclodextrin, thermodynamic from solid, DMSO/water 1:1 v/v, 60° C.
Experimental: The exact solubilities of Compound 1 Form A in selected solvent systems were determined at 24° C. and 60° C. […] The concentration of Compound 1 was then determined by HPLC. The exact solubilities of Form A in selected solvent systems were determined at 24° C. and 60° C. […] The concentration of Compound 1 was then determined by HPLC.
Recorded endpoint: solubility at 1 day (mg/mL)
Field format: number, assumed mg/mL, no unit text.

Per the records, this molecule ( Cc1nc(N)c2c(C(N)=O)cn([C@@H]3O[C@H](CO)[C@@H](O)[C@H]3O)c2n1 [Compound 1] ) has solubility at 1 day equal to 18.7

---

Test: Approximate solubility of Compound 1 in various solvents (stepwise solvent addition)
Type: physicochemical
Details: aqueous with cosolvent or surfactant or cyclodextrin, thermodynamic from solid; 1-Propanol/water 1:2 v/v; at 80° C.; read-out: Solubility [S, mg/mL]
Recorded endpoint: solubility

Notebook: Cc1nc(N)c2c(C(N)=O)cn([C@@H]3O[C@H](CO)[C@@H](O)[C@H]3O)c2n1 [Compound 1] , solubility read as ~51 mg/mL

---

Assay: Approximate solubility of Compound 1 in various solvents (stepwise solvent addition)
Format: physicochemical
Settings: aqueous with cosolvent or surfactant or cyclodextrin, thermodynamic from solid; 2-Propanol/water 2:1 v/v; RT; read-out: Solubility [S, mg/mL]
Recorded endpoint: solubility

Cc1nc(N)c2c(C(N)=O)cn([C@@H]3O[C@H](CO)[C@@H](O)[C@H]3O)c2n1 [Compound 1] has a reported solubility of ~6 mg/mL

---

Experiment: Exact solubility of Compound 1 Form A in selected solvent systems (1 day suspension, HPLC)
Assay type: physicochemical
Conditions: DMSO/0.01 M aqueous NaOH 1:2 v/v, aqueous with cosolvent or surfactant or cyclodextrin, thermodynamic from solid, DMSO/NaOH aq 0.01M 1:2 v/v, 24° C.
Recorded endpoint: solubility at 1 day

Record summary for Cc1nc(N)c2c(C(N)=O)cn([C@@H]3O[C@H](CO)[C@@H](O)[C@H]3O)c2n1 [Compound 1] : reported solubility at 1 day = 4800 µg/mL

---

Assay: Approximate solubility of Compound 1 in various solvents (stepwise solvent addition)
Type: physicochemical
Details: thermodynamic from solid; Water; RT; read-out: Solubility [S, mg/mL]
Recorded endpoint: solubility

# solubility (compound: Cc1nc(N)c2c(C(N)=O)cn([C@@H]3O[C@H](CO)[C@@H](O)[C@H]3O)c2n1 [Compound 1] ) is < 1.3 mg/mL

---

Experiment: Exact solubility of Compound 1 Form A in selected solvent systems (1 day suspension, HPLC)
Type: physicochemical
Details: aqueous with cosolvent or surfactant or cyclodextrin, thermodynamic from solid, Ethanol/NaOH aq 0.1M 1:3 v/v, 24° C.
Recorded endpoint: solubility at 1 day (µg/mL)
Your answer is read as µg/mL, so omit the unit and give the number.

Short answer for Cc1nc(N)c2c(C(N)=O)cn([C@@H]3O[C@H](CO)[C@@H](O)[C@H]3O)c2n1 : solubility at 1 day was 9000

---

Test: Approximate solubility of Compound 1 in various solvents (stepwise solvent addition)
Assay type: physicochemical
Settings: thermodynamic from solid; Water; 60° C.; read-out: Solubility [S, mg/mL]
Recorded endpoint: solubility

Entry Cc1nc(N)c2c(C(N)=O)cn([C@@H]3O[C@H](CO)[C@@H](O)[C@H]3O)c2n1 — recorded solubility = ~3 mg/mL

---

Test: Approximate solubility of Compound 1 in various solvents (stepwise solvent addition)
Assay type: physicochemical
Details: aqueous with cosolvent or surfactant or cyclodextrin, thermodynamic from solid; 2-Propanol/water 1:2 v/v; RT; read-out: Solubility [S, mg/mL]
Recorded endpoint: solubility

Entry Cc1nc(N)c2c(C(N)=O)cn([C@@H]3O[C@H](CO)[C@@H](O)[C@H]3O)c2n1 ; solubility = ~5 mg/mL

---

Assay: Approximate solubility of Compound 1 in various solvents (stepwise solvent addition)
Assay type: physicochemical
Conditions: aqueous with cosolvent or surfactant or cyclodextrin, thermodynamic from solid; 1-Propanol/water 1:2 v/v; RT; read-out: Solubility [S, mg/mL]
Recorded endpoint: solubility

// Cc1nc(N)c2c(C(N)=O)cn([C@@H]3O[C@H](CO)[C@@H](O)[C@H]3O)c2n1 : solubility value = ~6 mg/mL
